System: HeLa tumor epithelial cells
test-description: HS immunostaining in HeLa cells
Format: cell-based
study-conditions: 48 hours
Counter-ions that a name gives are not always drawn.
property: Relative HS fluorescence intensity
No unit in the answer, only the number.

Below, each entry is followed by its recorded Relative HS fluorescence intensity result.
CCCCCCCCCN1C[C@@H](O)[C@H](O)[C@@H](O)[C@@H]1CO [L-NNDNJ•HCl]; 0.88
CCCCCCOCCCCCN1C[C@@H](O)[C@H](O)[C@@H](O)[C@@H]1CO [L-HPDNJ•HCl]; 0.95
CCCCCCCCCOCCCCCN1C[C@@H](O)[C@H](O)[C@@H](O)[C@@H]1CO [L-NPDNJ•HCl]; 1.19

GET /value?item= CCCCN1C[C@@H](O)[C@H](O)[C@@H](O)[C@@H]1CO [L-NBDNJ•HCl, N-butyl-L-deoxynojirimycin] &field=Relative HS fluorescence intensity returns 0.26

Record OC[C@@H]1NC[C@@H](O)[C@H](O)[C@H]1O [L-DNJ•HCl] , field Relative HS fluorescence intensity: 0.24

So for COCCCCCCCCCN1C[C@@H](O)[C@H](O)[C@@H](O)[C@@H]1CO [L-MONDNJ•HCl, N-methoxynonyl L-DNJ] , the logged Relative HS fluorescence intensity turned out to be 0.11

Field Relative HS fluorescence intensity (entry OC[C@H]1[C@H](O)[C@@H](O)[C@H](O)CN1CCCCCOCC12CC3C[C@H](C1)C[C@H](C3)C2 [L-AMPDNM•HCl, N-adamantanomethoxypentyl L-DNJ] ) reads 0.12
